Tested System: T1, mouse IL-2Rβ (mouse) (UniProt P16297)
T1 sequence (looked up): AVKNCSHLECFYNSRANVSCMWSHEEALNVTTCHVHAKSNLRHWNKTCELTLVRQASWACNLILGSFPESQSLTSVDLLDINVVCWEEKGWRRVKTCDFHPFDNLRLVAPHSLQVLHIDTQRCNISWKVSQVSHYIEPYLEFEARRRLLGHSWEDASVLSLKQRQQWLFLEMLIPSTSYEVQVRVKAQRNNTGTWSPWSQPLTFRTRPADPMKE
Test: P.E. binding ELISA on coated protein
Measurement Type: P.E. binding ELISA OD (OD450 nm)

FJ1427_P035MP02D12 (VHH) VHH: QVQLVESGGGLVQAGGSLTLSCAASGGAFSSDAKAWFRQAPGKEREFVAAITWAGRGTDYADSVKGRFTITRDNAKATVHLQMNSLKPEDTAVYYCALNPRGVIGPAFRNSNHYTYWGQGTQVTVSS: 0.046
FJ1427_P035MP03D10 (VHH) VHH: QVQLQESGGGLVQAGDSLRLSCVVSGRDFSGYTMGWFRQPPGKEREFVALITWSTGRVHYTDSVEGRFTISRDSAKNTVYLQMNSLKPEDTAVYTCAAGRVGYTTNLHSYDYSGQGTQVIVSA: 0.047
FJ1427_P035MP03G10 (VHH) VHH: QVQLVESGGGLVQAGGSLRLSCAASGRSYAMGWFRQAPGKEREFVAAISWSASSTYYSESVKGRFTISRENAKNTVYLQMNSLKPEDTAVYYCAVRASPFVAGSYDPSDDPADYGSWGQGTQVIVSS: 0.048
FJ1427_P035MP02C12 (VHH) VHH: EVQLVESGGGSVQAGGSLRLSCAASGRTFSDYTMGWFRQAPGKEREFVVAITGTGHTTDMPDSVEGRFTISRDNAKNTIYLDMKNLKPGDTAVYYCASARGLPVTPLGDIIYWGEGTLVTVSS: 0.047
FJ1427 P035MP03F07 (VHH) VHH: QVQLVESGGGLVQAGGSLRLSCAASGRTFSSYVMGWFRQAPGKEREFVVAITGTRRTTDWPDSVKGRFTISRDNAQNTVYLDMNSLKPEDTAVYYCASARGLPVPPLGDIIHWGEGTLVTVSS: 0.048
FJ1427_P035MP03E06 (VHH) VHH: QVQLVESGGGLVQAGRSLGLSCAASGFTFDNYAMSWVRQAPGKGLEWVSSITGAGRGTHYADSVKGRFTISRDNAKNTLYLQMNSLKPEDTAVYYCAKYSSSTYYPPTPARGTDYRGPGTQVTVSS: 0.048
FJ1427_P035MP03H07 (VHH) VHH: EVQLVESGGGLVQAGGSLRLSCVVSGDVFVRYTMAWFRQAPGKEREFVAAVTDSGRTTEYVDSVKGRFTVSRDNAKNTVYLQMNNLKPEDTAVYYCAANTDYFQIRSVDNNAWGQGTQVTVSS: 0.053
FJ1427_P035MP03A07 (VHH) VHH: QVQLVESGGGLVEAGGSLRLSCAASGRAFNNFPMGWFRQAPGKEREFVAAITWISGSTLYADSVKGRFTISRDKSKNTVYLQMSGLKPEDTALYYCAAALKTITRGQHDYTYWGQGTQVTVSS: 0.049
FJ1427 P035MP03D04 (VHH) VHH: QVQLVESGGGLVQPGGSLRLSCAASGFTFSNYAMSWVRQAPGKELEWVSSITSAGRGTHYADTVKGRFTISRDNDENTLYLQMNSLEPEDTAVYYCAKYSSATYYPPTPAQGRDYRGQGTQVTVSS: 0.048
FJ1427 P035MP03E07 (VHH) VHH: QVQLVESGGGLVQAGGSLRLSCAVSGDVFVRYTMAWFRQAPGKEREFVATVTDSGRTTEYVDSVKGRFTVSRDNAKNTVYLQMNNLKPEDTAVYYCAANTDYFRIRSLDANTWGQGTQVTVSS: 0.057
FJ1427 P035MP03H05 (VHH) VHH: QLQLVESGGGLVQAGGSLALSCAASGGTFSSYAMGWFRQAPGKEREFVAATTRGGGRTMYAVSTEGRFSCSRDNAKNTVYLLIKNLKPEDTAVYYCAARTSYYDGTYYPASSDFDIWGQGTQVTVSS: 0.049
FJ1427_P035MP03F04 (VHH) VHH: EVQLVESGGGLVQTGGSLRLSCAASGSQFINDVMGWYRQVPGKQRELVADMDDTGSTKYADSVKGRFTILRDSVKNTAYLQMSNLKPEDTGVYYCKAGLWIKGRHSDYWGQGTQVTVSS: 0.049
FJ1427 P035MP03D01 (VHH) VHH: QVQLVESGGGLVQPGGSLGLSCAASGFTFDNYAMSWVRQAPGKGLEWVSSITGAGRGTHYADSVKGRFTISRDNAKNTLYLQMNSLKPEDTAVYYCAKYSSSTYYPPTPARGTDYRGPGTQVTVSS: 0.048
FJ1427 P035MP03C02 (VHH) VHH: QVQLVESGGGLVQVGDSLRLSCAASGRTVGSANMGWFRQAPGKEREFVAVITWSTGSTVYADSVKGRFTISRDNAKNTVYLDMSSLKPEDTAVYYCAADVYPYSGNLNIMDYWGKGTLVTVSS: 0.048
FJ1427 P035MP03D07 (VHH) VHH: EVQLVESGGGLVQAGGSLRLSCAASGDVFVRYTMAWFRQAPGKEREFVASVTDSGRTTDYGDSVKGRFTVSRDNAKNTVYLQMNNLKPEDTAVYYCAANTDYFQIRSLDANTWGQGTQVTVSS: 0.049
